assay: Pharmacokinetic studies in rats (plasma and brain); format: in vivo; settings: rat, brain, iv, 40 mg/kg, rat, i.v. 40 mg/kg, 2h, individual rat; read-out: Brain concentration
measurement-name: concentration at 2 h (nM)
Respond with the bare value in nM.

(Q) Entry `N[C@H](CNC(=O)C1(c2ccc(Cl)cc2)CCCC1)c1ccc(C(=O)Nc2ccncc2)cc1` has what concentration at 2 h?
(A) 2290

---

Experiment: Pharmacokinetic studies in rats (plasma and brain)
Format: in vivo
Settings: rat, plasma, ip, 40 mg/kg, i.p. 40 mg/kg, 8h, mean all rats
Excerpt: Because binding to plasma protein was approximately 90%, we predicted that the free concentration at each time point was 10 times lower than the measured plasma concentration. Pharmacokinetic studies in rats. Pharmacokinetics studies were contracted to the Drug Metabolism and Pharmacokinetics Core at Scripps Research. […] CP612 was detected with an API Triple Quad 5500 LC-MS/MS (SCIEX) using an MRM(+) method: CP612 (463/282, m/z) with carbamazepine (238/195.1, m/z) as an internal standard.
measurement-name: concentration at 8 h (nM)
Respond with the bare value in nM.

(Q) Entry `N[C@H](CNC(=O)C1(c2ccc(Cl)cc2)CCCC1)c1ccc(C(=O)Nc2ccncc2)cc1` has what concentration at 8 h?
(A) 2130

---

assay: Microsomal clearance; conditions: both, human, microsomes, Microsomal clearance t½ (min), human liver microsomes, NADPH
measurement-name: half-life at 8.5 μM (min)
Respond with the bare value in min.

(Q) Entry `C[C@]12CC[C@H]3[C@@H](CCC4=CC(=O)CC[C@@]43C)[C@@H]1CC[C@@H]2O` has what half-life at 8.5 μM?
(A) 12.7

---

experiment: Pharmacokinetic studies in rats (plasma and brain); format: in vivo; details: rat, plasma, ip, 40 mg/kg, i.p. 40 mg/kg, 1h, mean all rats
measurement-name: concentration at 1 h (µM)
Respond with the bare value in µM.

(Q) Entry N[C@H](CNC(=O)C1(c2ccc(Cl)cc2)CCCC1)c1ccc(C(=O)Nc2ccncc2)cc1 [CP612] has what concentration at 1 h?
(A) 28.3

---

experiment: Pharmacokinetic studies in rats (plasma and brain); type: in vivo; details: rat, brain, ip, 40 mg/kg, rat, i.p. 40 mg/kg, 24h, mean of RM Plasma + Brain 24h rats; read-out: Brain concentration
measurement-name: concentration at 24 h (nM)
Respond with the bare value in nM.

(Q) Entry `N[C@H](CNC(=O)C1(c2ccc(Cl)cc2)CCCC1)c1ccc(C(=O)Nc2ccncc2)cc1` has what concentration at 24 h?
(A) 540

---

assay: Kinetic aqueous solubility; format: physicochemical; settings: 0.1M phosphate-buffered saline (PBS), aqueous buffer, kinetic from dmso stock, mean of 3 samples; read-out: Kinetic aqueous solubility, Corrected (nM), Mean
measurement-name: solubility kinetic at 3 h (nM)
Respond with the bare value in nM.

(Q) Entry N[C@H](CNC(=O)C1(c2ccc(Cl)cc2)CCCC1)c1ccc(C(=O)Nc2ccncc2)cc1 [CP612] has what solubility kinetic at 3 h?
(A) 7410

---

experiment: Pharmacokinetic studies in rats (plasma and brain); assay type: in vivo; conditions: rat, brain, iv, 40 mg/kg, rat, i.v. 40 mg/kg, 2h, mean of Plasma 2h, Brain 2h rats; read-out: Brain concentration
measurement-name: concentration at 2 h (nM)
Respond with the bare value in nM.

(Q) Entry `N[C@H](CNC(=O)C1(c2ccc(Cl)cc2)CCCC1)c1ccc(C(=O)Nc2ccncc2)cc1` has what concentration at 2 h?
(A) 2630
